Source of measurements: patent US12415785B2

Tested On: WT human STING isoform (THP-1-Dual KI-hSTING-R232 cells) (Homo sapiens (Human), UniProt Q86WV6, H232R)
Sequence (Q86WV6 whole entry H232R, canonical isoform): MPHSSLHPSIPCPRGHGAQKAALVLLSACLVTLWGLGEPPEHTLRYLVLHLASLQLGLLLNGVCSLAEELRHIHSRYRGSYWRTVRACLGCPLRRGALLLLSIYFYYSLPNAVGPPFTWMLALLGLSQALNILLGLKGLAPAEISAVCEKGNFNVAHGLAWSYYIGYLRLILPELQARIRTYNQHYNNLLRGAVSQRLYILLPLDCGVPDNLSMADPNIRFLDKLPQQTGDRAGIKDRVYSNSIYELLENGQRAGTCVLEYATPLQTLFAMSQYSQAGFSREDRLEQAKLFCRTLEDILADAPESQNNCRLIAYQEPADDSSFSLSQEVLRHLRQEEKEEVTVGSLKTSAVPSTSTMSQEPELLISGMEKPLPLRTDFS
Experimental Details: THP-1-Dual KI-hSTING-R232 reporter cell line assay
Settings: 24 h incubation, QUANTI-Luc luminescence
Attribute Measured: EC50 (nM)
The reply should contain only the number, in nM.

Noted for COc1c(C(N)=O)ccc2c1nc(-c1ccc(Cl)cc1C(=O)O)n2CCn1c(-c2ccc(Cl)cc2C(=O)O)nc2c(OC)c(C(N)=O)ccc21 [Example 1] : its EC50 reads 895

EC50 reported for this compound COc1c(C(N)=O)ccc2c1nc(-c1ccccc1C(=O)O)n2CCn1c(-c2ccccc2C(=O)O)nc2c(OC)c(C(N)=O)ccc21 [Example 4] : 32500

EC50 measured on COc1c(C(N)=O)ccc2c1nc(-c1c(F)cc(Cl)cc1-c1n[nH]c(=O)o1)n2CCn1c(-c2c(F)cc(Cl)cc2-c2n[nH]c(=O)o2)nc2c(OC)c(C(N)=O)ccc21 [Example 50] = 31.2

Entry COc1c(C(N)=O)ccc2c1nc(-c1c(F)cc(Cl)cc1Br)n2CCn1c(-c2c(F)cc(Cl)cc2Br)nc2c(OC)c(C(N)=O)ccc21 [Example 45] ; EC50 = 3250

The reported EC50 of the compound COc1c(C(N)=O)cc(F)c2c1nc(-c1c(F)cc(F)cc1C(=O)O)n2CCn1c(-c2c(F)cc(F)cc2C(=O)O)nc2c(OC)c(C(N)=O)cc(F)c21 [Example 18] was 566

EC50 measured on COc1c(C(N)=O)ccc2c1nc(-c1c(I)cccc1C(=O)O)n2CCn1c(-c2c(I)cccc2C(=O)O)nc2c(OC)c(C(N)=O)ccc21 (single isomer, unassigned) [Example 19.1] = 232

Summary for this compound, COc1c(C(N)=O)ccc2c1nc(-c1c(F)cccc1-c1nn[nH]n1)n2CCn1c(-c2c(F)cccc2-c2nn[nH]n2)nc2c(OC)c(C(N)=O)ccc21 [Example 48] : EC50 is 269

The value of EC50 measured for the compound COc1c(C(N)=O)ccc2c1nc(-c1c(F)cccc1-c1n[nH]c(=O)o1)n2CCn1c(-c2c(F)cccc2-c2n[nH]c(=O)o2)nc2c(OC)c(C(N)=O)ccc21 [Example 49] turned out to be 191

====

Tested On: human STING (WT) (Homo sapiens (Human), UniProt Q86WV6, H232R)
Sequence (Q86WV6 other isoform, or with tags, fused parts or gaps, stated change not applied): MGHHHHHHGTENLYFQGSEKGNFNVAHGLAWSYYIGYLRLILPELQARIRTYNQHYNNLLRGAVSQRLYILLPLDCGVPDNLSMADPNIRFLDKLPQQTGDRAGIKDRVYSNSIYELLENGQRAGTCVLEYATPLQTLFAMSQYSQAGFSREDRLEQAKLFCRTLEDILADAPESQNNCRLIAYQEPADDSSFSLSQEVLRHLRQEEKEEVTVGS
Experimental Details: Surface plasmon resonance (SPR), STING (WT)
Settings: biotinylated STING on streptavidin chip, 8° C.
Attribute Measured: log10 of Kd (log10 of the value in µM)
# values: log10(Kd), units µM

Documented log10 of Kd of `COc1c(C(N)=O)ccc2c1nc(-c1cc(F)c(F)cc1C(=O)O)n2CCn1c(-c2cc(F)c(F)cc2C(=O)O)nc2c(OC)c(C(N)=O)ccc21` : 3.00

// recorded log10 of Kd for `COc1c(C(N)=O)ccc2c1nc(-c1ccc(Cl)cc1-c1nn[nH]n1)n2CCn1c(-c2ccc(Cl)cc2-c2nn[nH]n2)nc2c(OC)c(C(N)=O)ccc21` : 1.60

`COc1c(C(N)=O)ccc2c1nc(-c1ccccc1-c1nn[nH]n1)n2CCn1c(-c2ccccc2-c2nn[nH]n2)nc2c(OC)c(C(N)=O)ccc21` yielded log10 of Kd of 1.60

`COc1c(C(N)=O)ccc2c1nc(-c1cnccc1C(=O)O)n2CCn1c(-c2cnccc2C(=O)O)nc2c(OC)c(C(N)=O)ccc21` yielded log10 of Kd of 2.10

Lab note: measured log10 of Kd of `COc1c(C(N)=O)ccc2c1nc(-c1c(F)cc(Cl)cc1-c1nn[nH]n1)n2CCn1c(-c2c(F)cc(Cl)cc2-c2nn[nH]n2)nc2c(OC)c(C(N)=O)ccc21` was -0.38

// field: log10 of Kd; key: `NC(=O)c1ccc2c(c1)nc(-c1ccccc1C(=O)O)n2CCn1c(-c2ccccc2C(=O)O)nc2cc(C(N)=O)ccc21` ; value = 1.90

Per the records, this compound ( `COc1c(C(N)=O)ccc2c1nc(-c1cccc(Br)c1C(=O)O)n2CCn1c(-c2cccc(Br)c2C(=O)O)nc2c(OC)c(C(N)=O)ccc21` ) has log10 of Kd equal to 1.76

// `COc1c(C(N)=O)ccc2c1nc(-c1c(F)cc(Cl)cc1Br)n2CCn1c(-c2c(F)cc(Cl)cc2Br)nc2c(OC)c(C(N)=O)ccc21` : log10 of Kd value = 1.47

// log10 of Kd lookup, compound = `COc1c(C(N)=O)ccc2c1nc(-c1ccc(Cl)cc1C(=O)O)n2CCn1c(-c2ccc(Cl)cc2C(=O)O)nc2c(OC)c(C(N)=O)ccc21` , result: 2.30

compound COc1c(C(N)=O)ccc2c1nc(-c1c(I)cccc1C(=O)O)n2CCn1c(-c2c(I)cccc2C(=O)O)nc2c(OC)c(C(N)=O)ccc21 (single isomer, unassigned) , log10 of Kd observed: -1.47

Per the record, `COc1c(C(N)=O)ccc2c1nc(-c1ccc(C)cc1C(=O)O)n2CCn1c(-c2ccc(C)cc2C(=O)O)nc2c(OC)c(C(N)=O)ccc21` has log10 of Kd of 2.40

The recorded log10 of Kd for entry `COc1c(C(N)=O)ccc2c1nc(-c1c(F)cccc1-c1nn[nH]n1)n2CCn1c(-c2c(F)cccc2-c2nn[nH]n2)nc2c(OC)c(C(N)=O)ccc21` equals -0.29

The reported value for `COc1c(C(N)=O)ccc2c1nc(-c1c(F)cccc1C(=O)O)n2CCn1c(-c2c(F)cccc2C(=O)O)nc2c(OC)c(C(N)=O)ccc21` in terms of log10 of Kd is 0.77

For `COc1c(C(N)=O)cc(F)c2c1nc(-c1ccc(Cl)cc1C(=O)O)n2CCn1c(-c2ccc(Cl)cc2C(=O)O)nc2c(OC)c(C(N)=O)cc(F)c21` the compound record lists log10 of Kd as 1.98

For `NC(=O)c1ccc2c(c1)nc(-c1ccccc1-c1nn[nH]n1)n2CCn1c(-c2ccccc2-c2nnn[nH]2)nc2cc(C(N)=O)ccc21` the compound record lists log10 of Kd as 1.48

NC(=O)c1ccc2c(c1)nc(-c1c(Br)cccc1C(=O)O)n2CCn1c(-c2c(Br)cccc2C(=O)O)nc2cc(C(N)=O)ccc21 (single isomer, unassigned) yielded log10 of Kd of 1.52

Quick note, log10 of Kd for `COc1c(C(N)=O)ccc2c1nc(-c1c(F)cc(Cl)cc1-c1n[nH]c(=O)o1)n2CCn1c(-c2c(F)cc(Cl)cc2-c2n[nH]c(=O)o2)nc2c(OC)c(C(N)=O)ccc21` landed at -0.44

Just so you know, measured log10 of Kd for `COc1c(C(N)=O)ccc2c1nc(-c1c(F)cc(F)cc1-c1n[nH]c(=O)o1)n2CCn1c(-c2c(F)cc(F)cc2-c2n[nH]c(=O)o2)nc2c(OC)c(C(N)=O)ccc21` came out at 1.05

`NC(=O)c1ccc2c(c1)nc(-c1cc(Br)ccc1C(=O)O)n2CCn1c(-c2cc(Br)ccc2C(=O)O)nc2cc(C(N)=O)ccc21` has a reported log10 of Kd of 2.85

Kindly note the recorded log10 of Kd for `COc1c(C(N)=O)ccc2c1nc(-c1c(F)cc(Cl)cc1C(=O)O)n2CCn1c(-c2c(F)cc(Cl)cc2C(=O)O)nc2c(OC)c(C(N)=O)ccc21` , which is 0.03

====

Kindly state EC50 for each of the entries shown.
Tested On: human HAQ isoform of STING (THP-1 STING Lucia ISG cells) (Homo sapiens (Human), UniProt Q86WV6, G230A/H232R/R293Q/R71H)
Sequence (Q86WV6 whole entry R71H/G230A/H232R/R293Q, canonical isoform): as the sequence (Q86WV6 whole entry H232R, canonical isoform) above, with R71H, G230A, R293Q counted along it
Experimental Details: THP-1 STING Lucia ISG reporter cell line assay
Settings: 24 h incubation, QUANTI-Luc luminescence
Express it in nM; write the number only.

For `COc1c(C(N)=O)ccc2c1nc(-c1ccc(Cl)cc1C(=O)O)n2CCn1c(-c2ccc(Cl)cc2C(=O)O)nc2c(OC)c(C(N)=O)ccc21` the compound record lists EC50 as 1070

# EC50 of `COc1c(C(N)=O)ccc2c1nc(-c1cc(F)c(F)cc1C(=O)O)n2CCn1c(-c2cc(F)c(F)cc2C(=O)O)nc2c(OC)c(C(N)=O)ccc21` = 2560

Consider `COc1c(C(N)=O)cc(F)c2c1nc(-c1c(F)cc(F)cc1C(=O)O)n2CCn1c(-c2c(F)cc(F)cc2C(=O)O)nc2c(OC)c(C(N)=O)cc(F)c21` . Its measured EC50 is 326

So for COc1c(C(N)=O)ccc2c1nc(-c1c(I)cccc1C(=O)O)n2CCn1c(-c2c(I)cccc2C(=O)O)nc2c(OC)c(C(N)=O)ccc21 (single isomer, unassigned) [Example 19.2] , the logged EC50 turned out to be 14900

For reference, reported EC50 for `COc1c(C(N)=O)ccc2c1nc(-c1cc(F)ccc1C(=O)O)n2CCn1c(-c2cc(F)ccc2C(=O)O)nc2c(OC)c(C(N)=O)ccc21` stands at 12600
